Molecular target: wildtype feline IL-31 (Feline_IL31_wildtype) (feline)
Sequence (chain, as listed by the source limits assumed, form in doubt): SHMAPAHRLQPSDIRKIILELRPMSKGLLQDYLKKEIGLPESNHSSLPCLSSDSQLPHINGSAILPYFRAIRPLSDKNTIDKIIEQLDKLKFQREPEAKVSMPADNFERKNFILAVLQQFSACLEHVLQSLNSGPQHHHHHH
Experiment: SPR (Biacore), immobilised IL-31, 1:1 fit
Measured Metric: kon (M⁻¹ s⁻¹)
Answer with a number only, understood to be in M⁻¹ s⁻¹.

Lab note: Feline 15H05 1.1 Y49N (antibody, V domains shown) VH: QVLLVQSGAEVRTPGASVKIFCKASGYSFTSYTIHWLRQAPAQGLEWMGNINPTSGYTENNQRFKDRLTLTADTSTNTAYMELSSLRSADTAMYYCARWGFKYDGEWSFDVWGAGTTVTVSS VL: EIQMTQSPSSLSASPGDRVTITCRASQGISIWLSWYQQKPGKVPKLLINKASNLHIGVPSRFSGSGSGTDFTLTISSLEPEDAATYYCLQSQTYPLTFGGGTKLEIK gave kon of 24000

Entry source: patent US20190282704A1
